Data credit: ChEMBL document CHEMBL4049387

experiment: Tmax in Wistar rat at 50 mg/kg, po administered as single dose by UPLC-MS/MS method; format: ADME, organism-based; details: in vivo
ENDPOINT_NAME: Tmax (h)
Only the number, expressed in h, is required.

Solved cases (3 shown):
>  <COMPOUND>
C[N+](C)(C)CC(CC(=O)[O-])OC(=O)CCC(=O)Nc1ccn([C@@H]2O[C@H](CO)[C@@H](O)C2(F)F)c(=O)n1 (stereo partly specified)

>  <ENDPOINT_NAME>
Tmax

>  <RESULT_VALUE>
1

$$$$
>  <COMPOUND>
C[N+](C)(C)CC(CC(=O)[O-])OC(=O)CCCCCCCCC(=O)Nc1ccn([C@@H]2O[C@H](CO)[C@@H](O)C2(F)F)c(=O)n1 (stereo partly specified)

>  <ENDPOINT_NAME>
Tmax

>  <RESULT_VALUE>
1.8

$$$$
>  <COMPOUND>
CCCC(=O)Nc1ccn([C@@H]2O[C@H](CO)[C@@H](O)C2(F)F)c(=O)n1

>  <ENDPOINT_NAME>
Tmax

>  <RESULT_VALUE>
1.9

$$$$

Consider the compound Nc1ccn([C@@H]2O[C@H](CO)[C@@H](O)C2(F)F)c(=O)n1 and give its measured Tmax.
1.7

Consider the compound C[N+](C)(C)CC(CC(=O)[O-])OC(=O)CCCCC(=O)Nc1ccn([C@@H]2O[C@H](CO)[C@@H](O)C2(F)F)c(=O)n1 (stereo partly specified) and give its measured Tmax.
1.3

Consider the compound C[N+](C)(C)CC(CC(=O)[O-])OC(=O)CCCCCCC(=O)Nc1ccn([C@@H]2O[C@H](CO)[C@@H](O)C2(F)F)c(=O)n1 (stereo partly specified) and give its measured Tmax.
1.2
